Just for reference, PubChem BioAssay is where these values come from.

assay_procedure: antimalarial activity against Dd2 strain (AID 2302);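 further: 0% = DMSO untreated growth and 100% = chloroquine plus artemisinin killed control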
condition: P. falciparum Dd2 in RBCs, LDH growth readout, 72 h; at 2 µM
Calls of active or inactive are those of the source.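 How the source made its calls: active means growth inhibition above 50% at the single 2 µM test dose, taken to imply half-maximal potency below 2 µM; inactive means the rest.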
Entry note: the call must match one of active, inactive

Worked cases, answers included:
compound	discrete_label
COc1ccc(Nc2nc(NCc3cccnc3)cc(-c3ccc(OC)cc3)n2)cc1	inactive
O=S(=O)(NC1=NCCC1)c1cccc(Nc2nc(C(F)(F)F)nc3ccccc23)c1	inactive
CN(C)CC1c2[nH]c3ccccc3c2CCN1C(=O)Nc1ccc(Cl)c(Cl)c1 (stereo not given)	inactive
O=C1OC(c2ccccc2)(c2ccccn2)CN1C1CCN(Cc2cccn2-c2ccc(Cl)cc2)CC1 (stereo not given)	active
Cc1ccc(O)cc1Nc1ccnc2cc(-c3ccccc3)ccc12	active
O=C(/C=C/c1ccc(Cl)c(Cl)c1)N1CCN(C(=O)Nc2ccc(F)c(Cl)c2)CC1	active
Cc1cc(-c2cccc3c(NC(=O)N4CCc5cc6nccc(N7CCN8CCC[C@H]8C7)c6cc54)cccc23)cc(C)n1	active
N#Cc1cccc(-c2nc(NCc3cccc(C(F)(F)F)c3)nn2-c2cccc(C(F)(F)F)c2)c1	active
CCCCCCCCn1ccc(=N)cc1	active
O=C(CSc1nccn1Cc1ccco1)Nc1cc(C(F)(F)F)ccc1Cl	active

# next compound below
Assay result, entry NC1CCCN(Cc2cccc(-c3ccc(-c4nc5ccccc5[nH]4)s3)c2)C1 (stereo not given) — outcome?
active

----------
I'd be grateful if you could share measured inhibition for these entries.
assay_procedure: human hepatoma cell viability loss – ATP luminescence, cytotoxicity control for P. falciparum antimalarial project, primary screen (AID 2303);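 further: 0% = DMSO wells and 100% = digitonin-killed cells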
condition: HepG2 viability, 24-48 h, at 10 µM, hits give high values
Give bare numbers, in %.

Example entries begin here.
molecule	quantity	reported_measurement
O=C(Nc1ccc(Cl)c(Cl)c1)N[C@H]1CCN(CCCCCNC(=O)[C@@H]2C[C@H]2c2ccc(Cl)c(Cl)c2)C1	inhibition	42
CCCCCCCN1CC[C@@H](CCCc2ccnc3ccc(OCCCCN=C(N)NO)cc23)[C@@H](CC)C1	inhibition	27
Cc1cc(N[C@@H](CC(C)C)C(=O)NCCOc2ccccc2)nc(Nc2ccccc2)n1	inhibition	9
CCCCCOc1ccc(C(O)C(CCC(CN2CCCCCC2)C(O)c2ccc(OCCCCC)cc2)CN2CCCCCC2)cc1 (stereo not drawn)	inhibition	99

Parameter requested: inhibition. Apply to each item below.
1. CC(=O)Nc1cc(C(=O)Nc2ccc(C3=NCCN3)cc2)ccc1C(=O)Nc1ccc(C2=NCCN2)cc1
2. CC1(C)C=C(c2ccncc2)c2cc(Cl)ccc2O1
3. CCNc1cc(C(=O)N[C@@H](Cc2ccccc2)[C@H](O)CNC(C)(C)CCCC(C)C)cc(N2CCCCS2(=O)=O)c1

12
-4
5

Parameter requested: inhibition. Apply to each item below.
1. CC(=O)Nc1ccc(CN2CCN(C(c3ccc(F)cc3)c3ccc(F)cc3)CC2)cc1
2. COc1ccc(-c2cc(C(=O)N[C@@H](Cc3ccccc3)C(=O)NCCN3CCCCC3)ccc2O)cc1
3. NC(=O)c1cccc(C(=O)Nc2cccc(-c3ccc(-c4nc5ccccc5[nH]4)s3)c2)c1

1: 4; 2: -3; 3: 37

----------
assay_procedure: inhibition of 3D7 malaria parasite growth – strain 3D7 (AID 2306);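 further: 0% = DMSO wells and 100% = chloroquine plus artemisinin control wells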
condition: P. falciparum 3D7 erythrocytic growth, LDH absorbance, 72 h; at 2 µM; hits give high values
The source made the active and inactive calls. How the calls were made is not given here.
I'd be grateful if you could share measured growth inhibition for these entries.

Example entries begin here.
compound	growth inhibition
CCNC(=O)Nc1ccc(N(C)c2ccnc(NC3CC3)n2)cc1	100% (active)
O[C@H]1[C@H](OCc2ccc(-c3ccccc3)cc2)CC[C@@H]1N1CCCCC1	96% (active)
CC(=O)Nc1ccc(Nc2cc(C)nc(Nc3ccc(NC(C)=O)cc3)n2)cc1	99% (active)

Parameter requested: growth inhibition. Apply to each item below.
1. O=C(NCc1cccs1)[C@H](Cc1ccccc1)Nc1ccnc(NCCc2ccccc2)n1
2. CC(=O)c1cccc(NC(=O)c2ccc(Cl)c(S(=O)(=O)N3CCc4ccccc43)c2)c1
3. CC(=O)NC(c1cccs1)c1cc(Cl)c2cccnc2c1O (stereo not given)
4. COc1cc2nc(N(C)C)nc(Nc3ccc(OCc4ccccc4)cc3)c2cc1OC
5. Cc1nnsc1C(=O)Nc1cccc(-c2ccc(-c3nc4ccccc4[nH]3)s2)c1

["85% (active)", "93% (active)", "94% (active)", "100% (active)", "89% (active)"]

----------
assay_procedure: inhibition of 3D7 malaria parasite growth – strain 3D7 (AID 2306);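 further: 0% = DMSO wells and 100% = chloroquine plus artemisinin control wells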
condition: P. falciparum 3D7 erythrocytic growth, LDH absorbance, 72 h; at 2 µM; hits give high values
quantity: growth inhibition (%)
One number for each entry, in %.

Example entries begin here.
given_smiles	growth inhibition / %
CCOC(=O)c1cc(C(=O)NCCCCN2CCC(c3ccc4c(c3OC)CCCC4)CC2)ccc1-c1ccc(C(F)(F)F)cc1	101
c1cc(-c2ccc(CNC3CC3)cc2)cc(-c2nc3ccccc3[nH]2)c1	96
COc1ccc2nc(Nc3nc(-c4ccccn4)cs3)sc2c1	93
Cc1cccc2[nH]c(-c3cccc(-c4cccc(CNCc5ccccc5)c4)c3)nc12	101
O=C(NCc1ccc(Cl)c(Cl)c1)c1ccc(C2CCN(Cc3ccc4nc[nH]c4c3)CC2)cc1	100

Parameter requested: growth inhibition. Apply to each item below.
1. COc1ccc(-n2cc(CNCCCn3ccnc3)c(-c3cccc(F)c3)n2)cc1
2. CN(C)CCN(C)Cc1ccc(-c2ccc3c(Nc4ccc(Oc5ccccn5)cc4)ccnc3c2)o1

98
100

Parameter requested: growth inhibition. Apply to each item below.
1. O=C(Nc1cccc(Oc2ccccc2)c1)N[C@H]1CCN(Cc2ccc(OCCCN3CCCCC3)cc2)C1
2. CCCN(Cc1nnc(-c2cccs2)o1)C(=O)CSc1nnnn1-c1ccc(C)c(C)c1

1. 101
2. 96

----------
I'd be grateful if you could share measured growth inhibition for these entries.
assay_procedure: inhibition of 3D7 malaria parasite growth – strain 3D7 (AID 2306);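 further: 0% = DMSO wells and 100% = chloroquine plus artemisinin control wells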
condition: P. falciparum 3D7 erythrocytic growth, LDH absorbance, 72 h; at 2 µM; hits give high values
Answers are plain numbers, in %.

compound	growth inhibition [%]
COc1ccc(-c2cccc(NC(=O)c3ccc(F)cc3)c2)cc1CN1CCCN(C)CC1	101

Parameter requested: growth inhibition. Apply to each item below.
1. O=C(Nc1ccc2nccc(N3CCN4CCC[C@H]4C3)c2c1)c1ccc(Cl)c(Cl)c1
2. O=C(OCc1ccccc1)N1CCc2c([nH]c3ccccc23)C1CCC(F)(F)F (stereo unspecified)

1. 101
2. 94

----------
assay_procedure: inhibition of 3D7 malaria parasite growth – strain 3D7 (AID 2306);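 further: 0% = DMSO wells and 100% = chloroquine plus artemisinin control wells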
condition: P. falciparum 3D7 erythrocytic growth, LDH absorbance, 72 h; at 2 µM; hits give high values
I'd be grateful if you could share measured growth inhibition for these entries.
Answers are plain numbers, in %.

Example entries begin here.
molecule	growth inhibition, %
C[C@H](Cc1ccc(OCCCCOc2ccc(C[C@@H](C)NC[C@H](O)c3cccc(Cl)c3)cc2)cc1)NC[C@H](O)c1cccc(Cl)c1	100
CN1CCC(N2CCN(Cc3ccc(-c4ccc(-c5nc6ccccc6[nH]5)s4)cc3)CC2)CC1	101
Fc1cccc(-c2ccc3c(c2)CC(NCc2c[nH]c4cnccc24)C3)c1 (stereo not given)	100
FC(F)(F)c1ccccc1OCc1cc(-c2ccncc2)c(COc2ccccc2C(F)(F)F)cc1C1=CCNCC1	98
CCCCc1cc(NC2CCN(C)CC2)nc(Nc2ccccc2)n1	103
CNCCNCc1ccc(-c2ccc(-c3nc4ccc(C(F)(F)F)cc4[nH]3)s2)cc1	99
Cc1[nH]cnc1-c1cccc(NC(=O)c2cc3ccccc3s2)c1	99
Cc1ccc(O)cc1Nc1c(C(N)=O)cnc2ccc(-c3cncs3)cc12	100
Cc1cc(N(C)C2CCN(CC3CCCCC3)C2)nc(Nc2ccc(Cl)cc2)n1 (stereo not given)	98

I would be grateful if you could share the reported growth inhibition for CC(C)Cc1nc(N2CCOCC2)c2nnn(Cc3ccccc3)c2n1 .
98

----------
I'd be grateful if you could share measured inhibition for these entries.
system_under_test: L-lactate dehydrogenase (Plasmodium falciparum (isolate CDC / Honduras))
assay_procedure: PfLDH activity inhibition – cell lysate, 3D7 strain, counter-screen for P. falciparum growth inhibition project (AID 2304);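 further: 0% = vehicle and 100% = reference inhibitor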
condition: P. falciparum 3D7 crude extract, LDH APAD/NBT absorbance; at 2 µM; hits give high values
Answers are plain numbers, in %.

Example entries begin here.
compound	quantity	endpoint_unit	reported_measurement
O=C(CCc1ccccc1)NC(c1ccc(Cl)cc1)c1ccc2cccnc2c1O (stereo not given)	inhibition	%	2
N#Cc1ccc(CNCCCCCCNCc2ccc(C#N)c3ccccc23)c2ccccc12	inhibition	%	-3
CCC1(C)N=C(N)N=C(N)N1c1ccc(Cl)cc1 (stereo not given)	inhibition	%	-3
Cc1cc(Cl)c(Cl)cc1NC(=O)Nc1cccc(C(F)(F)F)c1	inhibition	%	-1
Cc1cc(N[C@@H](CC(C)C)C(=O)NCCOc2ccccc2)nc(Nc2ccccc2)n1	inhibition	%	-2
COc1cc(CNC2Cc3ccccc3C2)ccc1Oc1ccc2nc[nH]c2c1	inhibition	%	-1
COc1cc(C(=O)NC2CCN(Cc3ccccc3)CC2)ccc1-c1nc2c(Cl)cc(C(F)(F)F)cc2[nH]1	inhibition	%	1
COc1ccc(-c2cccc(NC(=O)c3ccccc3)c2)cc1CN1CCCN(C)CC1	inhibition	%	-7
Cc1cnc2ccc(NS(=O)(=O)c3ccc4c(Cl)cccc4c3)cc2c1N1CCNCC1	inhibition	%	1

Would you kindly look at the next entry?
I would be grateful if you could share the reported inhibition for O=C(Nc1cccc(C(F)(F)F)c1)c1cccc(S(=O)(=O)NC2CCN(CC3CCCCC3)C2)c1 (stereo not given) .
-1
